target.system: Histone acetyltransferase KAT5 (Homo sapiens)
protocol: Inhibition of His-tagged human recombinant Tip60 expressed in Escherichia coli BL21(DE3) cells using [14C][…] and histone H4 as substrate at 200 uM after 5 mins by scintillation counting
Active and inactive are the calls of the source. The rule behind the calls is not given here.
quantity.measured: inhibition

>>> df
                                   molecule  result
0      CCCCCCCc1ccc(CCc2cccc(O)c2C(=O)O)cc1     88%
1  CC(C)CCCC(C)CCOc1ccc(CCc2cccc(O)c2C(=O)O)cc1 (centres undefined)   > 76%
2  CCCCCOc1ccc(CCc2cccc(O)c2C(=O)O)cc1C(C)=O   > 76%
3  CCCCCOc1ccc(CCc2cccc(O)c2C(=O)O)cc1C(C)O (centres undefined)  Active
4   C=CC/C=C\C/C=C\CCCCCCCc1cccc(O)c1C(=O)O   > 76%
5       CCCCCCCCCCCCCCCc1cc(O)cc(O)c1C(=O)O   > 76%
6               CCCCCCCCCCc1cccc(O)c1C(=O)O   > 76%
7        COCCOc1ccc(CCc2cccc(O)c2C(=O)O)cc1  Active

# next molecule below
Query: Provide the reported inhibition (system: Histone acetyltransferase KAT5 (Homo sapiens)) for CCCCCCCCCCc1cc(O)cc(O)c1C(=O)O
Reply: > 76%
